test-details: ATG_DR4_LXR_CIS: Attagene CIS-FACTORIAL HepG2 Assay for human Liver X Receptor (LXR), DR4 submotif (AID 2282929)
condition-parameters: HepG2 Attagene DR4 cis-reporter, mRNA transcription; actives raise or lower the signal
The source made the active and inactive calls. The calls were made as follows: active = hit-call score of the fitted dose curve at least 0.9, where 1 is the maximum; inactive = score below 0.9.
reported-property: AC50

Solved entries:
Measured AC50 of CNC(=O)Oc1ccc(N(C)C)c(C)c1 : inactive

Measured AC50 of O=S1(=O)OCC2C(CO1)C1(Cl)C(Cl)=C(Cl)C2(Cl)C1(Cl)Cl (centres undefined) : 8.33 µM (active)

Measured AC50 of Nc1ccc([N+](=O)[O-])cc1Cl : inactive

Measured AC50 of CC(Cl)CN(C)C (centres undefined) : inactive

Measured AC50 of N#C/C=C/c1ccccc1 : inactive

New cases:
Measured AC50 of CCOc1ccc(C(C)(C)COCc2cccc(Oc3ccccc3)c2)cc1 : inactive

Measured AC50 of CC(C)CBr : inactive

Measured AC50 of [N-]=[N+]=[N-] : inactive

Measured AC50 of CCCCc1ccccc1 : inactive

Measured AC50 of CC(O)C(F)(F)C(F)(F)F (centres undefined) : inactive

Measured AC50 of Cc1ccc(N)cc1N : inactive

Measured AC50 of CC1=C(C(=O)Nc2ccccc2)S(=O)(=O)CCO1 : 44.3 µM (active)

Measured AC50 of CCC1(c2ccccc2)C(=O)N=C(O)NC1=O (centres undefined) : inactive

Measured AC50 of Oc1ccc(I)cc1 : inactive

Measured AC50 of FC(F)(F)C(F)(C(F)(F)F)C(F)(F)C(F)(F)CC1CO1 (centres undefined) : inactive

Measured AC50 of CCOC(=O)c1ccccc1C(=O)OCC : inactive

---

Read-out: Alkaline Phosphatase, Placental (ALPP) gene, ALPP (gene 250)
test-details: LTEA_HepaRG_ALPP: Life Technologies and Expression Analysis (LTEA) Assay for Alkaline Phosphatase, Placental (ALPP) gene using HepaRG (AID 2283468)
condition-parameters: mRNA level, 48 h; actives raise or lower the signal
Calls of active or inactive are those of the source. Rule for the calls: active = hit-call score of the fitted dose curve at least 0.9, where 1 is the maximum; inactive = score below 0.9.
Your response should consist of one outcome taken from TRUE (active), FALSE (inactive)

Task item: Would you mind telling me which call this test gave ClC1=C(Cl)C2(Cl)C3C(Cl)C(Cl)CC3C1(Cl)C2(Cl)Cl (configuration not stated) ?
Reply: TRUE

Task item: Would you mind telling me which call this test gave Cc1ccc([N+](=O)[O-])cc1C ?
Reply: FALSE

Task item: Would you mind telling me which call this test gave CCCCN(CCCC)N=O ?
Reply: FALSE

Task item: Would you mind telling me which call this test gave CCOc1ccc(C(C)(C)COCc2cccc(Oc3ccccc3)c2)cc1 ?
Reply: FALSE

New cases:
Task item: Would you mind telling me which call this test gave Cc1ccc(N)cc1N ?
Reply: FALSE

Task item: Would you mind telling me which call this test gave Nc1ccc(Cl)cc1 ?
Reply: FALSE

Task item: Would you mind telling me which call this test gave CCN(CC)c1ccccc1 ?
Reply: FALSE

Task item: Would you mind telling me which call this test gave CC(C)(C)OOC(C)(C)C ?
Reply: FALSE

Task item: Would you mind telling me which call this test gave OCC1CO1 (configuration not stated) ?
Reply: FALSE

Task item: Would you mind telling me which call this test gave CCNc1nc(Cl)nc(NC(C)(C)C)n1 ?
Reply: TRUE

Task item: Would you mind telling me which call this test gave O=C(O)C(Cl)Cl ?
Reply: FALSE

Task item: Would you mind telling me which call this test gave CCOP(=S)(OCC)SCSCC ?
Reply: FALSE
